- System: CCRF-CEM leukemia
- experiment.summary: NCI tumour cell line growth inhibition, 48 h
Entries and their TGI values follow.

compound	TGI
Cc1cc2c(cc1C)[n+](=O)c(C(=O)CC(=O)C(=O)Nc1ccccc1C(C)C)c(C)n2[O-]	> 100 µM

// query API: value(readout=TGI, system=CCRF-CEM leukemia) for record COc1ccc2[nH]c3c4c(cc(-c5ccccc5)c3c2c1)C(=O)N(c1ccccc1)C4=O
// result 15.1 µM

// query Lookup: TGI / CCRF-CEM leukemia / O=P(CCOc1ccccc1OCCP(=O)(c1ccccc1)c1ccc2c(c1)OCCOCCOCCOCCO2)(c1ccccc1)c1ccc2c(c1)OCCOCCOCCOCCO2 (stereo not given)
// result > 100 µM

// query So what TGI did CC1CCC2CC1NC(=O)CCOCCC(=O)NC2(C)C (stereo not given) get with CCRF-CEM leukemia?
// result > 100 µM

// query API: value(readout= TGI, system= CCRF-CEM leukemia, query= CN1C(C)(C)CC(=O)C(Br)C1(C)C (stereo not given) )
// result > 100 µM

// query Quick check: TGI on CCRF-CEM leukemia, item COC(=O)[C@]1(C)CCC[C@]2(C)[C@@H](CCC(=O)C(C)C)[C@]3(C=O)O[C@@H]3C[C@H]21 ?
// result > 100 µM

// query Form: Entry = COC1=CC(=O)c2c(cc3c(c2O)-c2c(OC)cc4cc5c(c(O)c4c2OC(=O)CC(C)(O)C3)C(=O)CC(C)(O)C5)C1=O (stereo not given) | System = CCRF-CEM leukemia | TGI = ____
// result 6.59 µM

###

- Test system: SK-OV-3 ovarian
- experiment.summary: NCI tumour cell line growth inhibition, 48 h
Each entry below lists one item and its recorded TGI value.

molecule	target.desc	TGI
O=C1C(=C([O-])c2ccccc2)C(=O)c2ccccc21.O=C1C(=C([O-])c2ccccc2)C(=O)c2ccccc21.[Co+2]	SK-OV-3 ovarian	> 100 µM

// query Which TGI reading was recorded for the molecule FC(F)(F)c1cc(-c2ncn(/C=C\c3nnco3)n2)cc(C(F)(F)F)c1 ?
// result > 67.3 µM

// query Reported TGI for C/C(=C\CNc1ncnc2c1ncn2CCC(=O)OC(C)(C)C)CO : what is it?
// result > 100 µM

// query Which TGI value belongs to CC1(C)SCc2nc3ccccc3n21 ?
// result > 100 µM

// query Recorded TGI for CCC(c1ccc(OC)cc1)C1NC(=S)NC1=O (stereo unspecified) , please?
// result > 50 µM

// query Quick one: TGI of Cc1cnc2c(c1)C(=O)N(c1ccc([N+](=O)[O-])cc1)S2(=O)=O ?
// result > 100 µM

###

- Tested on: SNB-78 CNS
- experiment.summary: NCI tumour cell line growth inhibition, 48 h
measurement.kind: TGI

Examples from the recorded data:
molecule	TGI
COc1cc(C2C(C(=O)O)=C(COC(C)=O)Oc3cc4c(cc32)OCO4)cc(OC)c1OC(C)=O (stereo not drawn)	> 100 µM
NC(=S)N/N=C(\CCC(=O)Nc1ccccc1[N+](=O)[O-])CC(=O)c1ccco1	> 100 µM

// query What does the data say about its TGI? Entry: O=c1nc(N2CCCC2)nc(N2CCCC2)s1
// result > 100 µM

###

- Test system: RPMI-8226 leukemia
- experiment.summary: NCI tumour cell line growth inhibition, 48 h; in the data active = GI50 below about 0.43 µM; inactive = the rest
Output constraint: value belongs to 1.0 for active, 0.0 for inactive

Examples with answers:
molecule	class.label
FC(F)(F)c1cc(-c2ncn(/C=C\c3nnco3)n2)cc(C(F)(F)F)c1	1.0
CCOC(=O)[C@@H](C)C[C@H](Cc1ccccc1)NC(=O)c1csc([C@@H](C[C@H](C(C)C)N(C)C(=O)[C@@H](NC(=O)[C@H]2C[C@H](O)CCN2C)C(C)C)OC(C)=O)n1	1.0
COc1cc2c3c(n(CCCN4CCCNCC4)c(=O)c2cc1OC)-c1cc2c(cc1C3=O)OCO2	0.0
O=C(O)c1ccc(C(=O)O)c(C(=O)O)c1.[NH-]C1CCCCC1[NH-].[Pt+2]	0.0
Cc1cc(C(O)(c2ccc(Nc3ccccc3)cc2)c2ccc(Nc3ccc(S(=O)(=O)O)cc3)cc2)ccc1N (configuration not stated)	0.0
CCC(C)(C)[C@H](NC(=O)[C@H]1CCCCN1C)C(=O)N(C)[C@H](C[C@@H](OC(C)=O)c1nc(C(=O)N[C@@H](Cc2ccccc2)C[C@H](C)C(=O)O)cs1)C(C)C	1.0

// query Kindly provide the recorded test outcome for the following molecule: O=C(O)c1cn(C2CC2)c2cc(N3CCN(C(=O)Nc4nc(-c5ccc(Br)cc5)cs4)CC3)c(F)cc2c1=O
// result 0.0

meta.source: PubChem BioAssay (NCI)
